Molecular target: pancreatic lipase (PL) (Sus scrofa)
Construct: gene PNLIP
Sequence (P00591 whole entry): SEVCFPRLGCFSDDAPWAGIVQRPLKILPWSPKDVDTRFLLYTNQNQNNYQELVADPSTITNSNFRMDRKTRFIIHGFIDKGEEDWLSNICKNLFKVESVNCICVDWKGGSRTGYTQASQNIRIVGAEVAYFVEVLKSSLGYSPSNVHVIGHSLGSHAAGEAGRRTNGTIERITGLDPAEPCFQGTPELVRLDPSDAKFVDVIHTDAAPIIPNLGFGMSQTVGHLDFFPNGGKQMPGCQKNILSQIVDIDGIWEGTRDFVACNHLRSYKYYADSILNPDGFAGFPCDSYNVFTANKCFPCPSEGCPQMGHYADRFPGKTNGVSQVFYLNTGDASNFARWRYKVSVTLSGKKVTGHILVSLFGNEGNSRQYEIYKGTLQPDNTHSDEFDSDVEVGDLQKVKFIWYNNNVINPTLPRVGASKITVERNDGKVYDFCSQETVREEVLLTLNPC
Assay: fluorogenic 4-MUO lipase assay dose-response; also nanofractionation bioassay profiling and ligand fishing with PL magnetic beads
Assay type: biochemical
Measured Metric: pIC50
Answer as the number alone; pIC50 is minus log10 of concentration in mol/L.

query: Tell me the measured pIC50 of `O=c1cc(-c2ccc(O)c(O)c2)oc2cc(O)cc(O)c12` , please.
result: 4.51
